target or system: p-EGFR L858R/T790M (Homo sapiens, UniProt P00533, L858R/T790M)
Construct: phosphorylation of mutant EGFR in NSCLC lines H1975; endogenous in cells; host or cells: H1975
Sequence (P00533 25-1210 T790M/L858R): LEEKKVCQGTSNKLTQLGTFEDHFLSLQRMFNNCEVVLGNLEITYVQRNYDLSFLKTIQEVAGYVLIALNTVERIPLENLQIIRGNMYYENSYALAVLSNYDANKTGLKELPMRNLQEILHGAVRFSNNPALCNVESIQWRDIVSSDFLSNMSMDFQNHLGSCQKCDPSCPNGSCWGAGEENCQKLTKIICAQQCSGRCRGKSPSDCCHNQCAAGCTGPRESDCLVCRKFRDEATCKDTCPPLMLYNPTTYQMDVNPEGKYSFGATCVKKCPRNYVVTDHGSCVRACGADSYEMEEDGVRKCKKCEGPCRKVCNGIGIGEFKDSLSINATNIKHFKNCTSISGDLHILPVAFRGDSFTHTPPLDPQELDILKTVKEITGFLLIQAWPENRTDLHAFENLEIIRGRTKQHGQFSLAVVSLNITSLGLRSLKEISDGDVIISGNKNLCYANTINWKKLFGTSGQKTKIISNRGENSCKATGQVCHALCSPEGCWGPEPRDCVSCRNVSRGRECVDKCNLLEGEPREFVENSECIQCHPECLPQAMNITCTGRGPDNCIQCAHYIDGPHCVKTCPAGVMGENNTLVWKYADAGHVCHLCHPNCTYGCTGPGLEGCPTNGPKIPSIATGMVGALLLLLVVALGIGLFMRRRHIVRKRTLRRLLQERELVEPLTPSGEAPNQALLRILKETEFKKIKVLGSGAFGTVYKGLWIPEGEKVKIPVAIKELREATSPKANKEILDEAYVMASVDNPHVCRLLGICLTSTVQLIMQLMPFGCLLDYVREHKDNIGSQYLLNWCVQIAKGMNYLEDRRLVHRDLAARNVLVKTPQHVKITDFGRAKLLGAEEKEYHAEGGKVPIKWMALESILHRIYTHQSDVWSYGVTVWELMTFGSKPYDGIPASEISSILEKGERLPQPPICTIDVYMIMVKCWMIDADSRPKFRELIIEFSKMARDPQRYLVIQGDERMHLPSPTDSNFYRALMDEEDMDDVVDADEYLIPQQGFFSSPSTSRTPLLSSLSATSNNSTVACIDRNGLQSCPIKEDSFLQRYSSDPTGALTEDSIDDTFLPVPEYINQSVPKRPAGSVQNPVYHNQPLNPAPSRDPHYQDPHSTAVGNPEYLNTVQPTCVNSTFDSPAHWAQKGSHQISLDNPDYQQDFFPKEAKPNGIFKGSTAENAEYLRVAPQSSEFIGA
protocol details: Western analysis, H1975 p-EGFR L858R/T790M
Assay type: cell-based
stated conditions: H1299 vs H1975
# key: entry, value: Selectivity over wildtype: p-wildtype over p-EGFR L858R, T790M

compound_structure_string=C=CC(=O)Nc1cc(Nc2nccc(-n3cc(CN(C)C)c(C4CC4)n3)n2)c(OC)cc1N1CCOCC1 result_value="20-100 fold"
compound_structure_string=C=CC(=O)Nc1cc(Nc2nccc(-n3cc(CN(C)C)c(C)n3)n2)c(OC)cc1N1CCOCC1 result_value="20-100 fold"
compound_structure_string=C=CC(=O)Nc1cc(Nc2ncc(C)c(-n3cc(CN(C)C)c(C4CC4)n3)n2)c(OC)cc1N1CCOCC1 result_value="20-100 fold"
compound_structure_string=C=CC(=O)Nc1cc(Nc2nccc(-n3cc(CN4CCC4)c(-c4ccccc4)n3)n2)c(OC)cc1N1CCOCC1 result_value="101-200 fold"
compound_structure_string=C=CC(=O)Nc1cc(Nc2nccc(-n3cc(CN(C)C)c(-c4ccccc4)n3)n2)c(OC)cc1N1CCOCC1 result_value="20-100 fold"
compound_structure_string=C=CC(=O)Nc1cc(Nc2ncc(C)c(-n3cc(CN4C[C@H](O)[C@H](OC)C4)c(C)n3)n2)c(OC)cc1N1CCOCC1 result_value=">200 fold"

Next compound, Selectivity over wildtype: p-wildtype over p-EGFR L858R, T790M to be filled in.
### Prompt Look up Selectivity over wildtype: p-wildtype over p-EGFR L858R, T790M: C=CC(=O)Nc1cc(Nc2nccc(-n3cc(CN4CCC4)c(C)n3)n2)c(OC)cc1N1CCOCC1
### Response 20-100 fold
